src = patent US9073918B2

Target: cellular TGF-β R1 ALK5 (Homo sapiens, UniProt P36897)
Assay: Cellular inhibition of ALK5 (CellSensor SBE-bla HEK 293T beta-lactamase reporter)
Settings: cellular inhibition of ALK5, SBE-bla HEK 293T cells, TGFb-1 stimulated 5 hours; average where measured in multiple experiments
pIC50: −log10 of the molar value.
measurement_label: pIC50

Below, each entry is followed by its recorded pIC50 result.
Lookup: Give me measured pIC50, please, for this compound: CN(C)C(=O)n1ncc2nccc(Nc3ccnc(-c4cc(Cl)ccc4F)c3)c21
Found: 6.50

Lookup: Give me measured pIC50, please, for this compound: Cc1ccc(F)c(-c2cc(Nc3c(F)cnc4cn(CC(C)(C)O)nc34)c(C)cn2)n1
Found: 5.90

P = Cc1ccc(F)c(-c2cc(Nc3ccnc4cn(CCF)nc34)ccn2)n1
Q = Cc1cnc(-c2cc(Cl)ccc2F)cc1Nc1ccnc2cnn(CC(N)=O)c12
Lookup: For the pair P and Q , which member has the lower pIC50 number? Pick one and reply with its label.
Found: P
(P: 7.30, Q: 7.70)

###

Target: cellular TGF-β R1 ALK5 (Homo sapiens)
Test: Cellular inhibition of ALK5 (CellSensor SBE-bla HEK 293T beta-lactamase reporter)
Conditions: cellular inhibition of ALK5, SBE-bla HEK 293T cells, TGFb-1 stimulated 5 hours; average where measured in multiple experiments
measurement_label: IC50 (nM)

Lookup: Give me measured IC50, please, for this compound: CNC(=O)n1ncc2nccc(Nc3ccnc(-c4cc(Cl)ccc4F)c3)c21
Found: 50.1

A = Cc1ccc(F)c(-c2cc(Nc3ccnc4cn(C[C@H](C)O)nc34)ccn2)n1
B = COCCn1ncc2nccc(Nc3ccnc(-c4nc(C)ccc4F)c3)c21
Lookup: For the pair A and B , which member has the lower IC50 number? Pick one and reply with its label.
Found: A

P = CNC(=O)n1ncc2nccc(Nc3cc(-c4cc(F)ccc4F)ncc3C)c21
Q = CCNC(=O)n1ncc2nccc(Nc3cc(-c4cc(Cl)ccc4F)ncc3C)c21
Lookup: Recorded IC50 values differ for P and Q ; which one is higher? Pick one and reply with its label.
Found: Q

###

Target sequence: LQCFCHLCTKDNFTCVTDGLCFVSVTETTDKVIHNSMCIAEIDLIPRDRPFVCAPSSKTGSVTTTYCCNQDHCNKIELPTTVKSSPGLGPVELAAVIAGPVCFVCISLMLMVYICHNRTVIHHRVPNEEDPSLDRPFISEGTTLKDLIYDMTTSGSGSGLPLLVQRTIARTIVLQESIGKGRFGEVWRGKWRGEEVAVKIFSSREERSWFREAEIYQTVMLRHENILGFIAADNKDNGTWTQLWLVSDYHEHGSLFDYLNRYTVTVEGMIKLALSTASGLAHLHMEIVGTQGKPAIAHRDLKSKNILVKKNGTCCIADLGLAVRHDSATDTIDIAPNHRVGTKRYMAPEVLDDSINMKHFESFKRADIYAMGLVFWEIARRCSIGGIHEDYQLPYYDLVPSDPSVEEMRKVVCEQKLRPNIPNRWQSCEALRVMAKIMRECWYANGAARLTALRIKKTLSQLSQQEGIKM
measurement_label: IC50 (nM)

Below, each entry is followed by its recorded IC50 result.
Lookup: Give me measured IC50, please, for this molecule: CNC(=O)Cn1cc2nccc(Nc3cc(-c4cc(F)ccc4F)ncc3C)c2n1
Found: 6.31

Lookup: Give me measured IC50, please, for this molecule: CCn1ncc2ncc(F)c(Nc3cc(-c4nc(C)ccc4F)ncc3C)c21
Found: 25.1

I = Cc1ccc(F)c(-c2cc(Nc3ccnc4cn(CCCO)nc34)c(C)cn2)n1
II = CCNC(=O)n1ncc2nccc(Nc3nc(-c4cc(F)ccc4F)ncc3C)c21
III = Cc1ccc(F)c(-c2cc(Nc3ccnc4cnn(CCF)c34)ccn2)n1
IV = CNC(=O)n1ncc2nccc(Nc3cc(C)nc(-c4cc(Cl)ccc4F)c3)c21
V = Fc1ccc(Cl)cc1-c1cc(Nc2ccnc3cn(CC4CCCO4)nc23)ccn1 (stereo not shown)
Lookup: Order the entries by their reported IC50, beginning at the minimum. Labels, ranked as asked.
Found: I, II, III, IV, V
(I: 7.94 nM, II: 15.8 nM, III: 25.1 nM, IV: 79.4 nM, V: 2510 nM)

###

Where a name gives a salt, the structure may show the parent alone.
measurement_label: melting point

Below, each entry is followed by its recorded melting point result.
Lookup: Give me measured melting point, please, for this compound: Cc1ccc(F)c(-c2cc(Nc3ccnc4cn(C[C@H](O)CO)nc34)ccn2)n1 (as salt: HCl)
Found: 182 to 184 °C

Lookup: Give me measured melting point, please, for this compound: Cc1ccc(F)c(-c2cc(Nc3ccnc4cnn(CC(C)(C)O)c34)ccn2)n1 (as salt: TFA)
Found: 135 to 136 °C

Lookup: Give me measured melting point, please, for this compound: NC(=O)Cn1ncc2nccc(Nc3ccnc(-c4cc(Cl)ccc4F)c3)c21 (as salt: TFA)
Found: 131 to 132 °C

// moving on: another record for melting point
Lookup: Give me measured melting point, please, for this compound: Cc1ccc(F)c(-c2cc(Nc3ccnc4cn(C)nc34)c(C)cn2)n1
Found: 102.9 to 103 °C

###

Biological target: cellular TGF-β R1 ALK5 (Homo sapiens, UniProt P36897)
Sequence (P36897 34-503): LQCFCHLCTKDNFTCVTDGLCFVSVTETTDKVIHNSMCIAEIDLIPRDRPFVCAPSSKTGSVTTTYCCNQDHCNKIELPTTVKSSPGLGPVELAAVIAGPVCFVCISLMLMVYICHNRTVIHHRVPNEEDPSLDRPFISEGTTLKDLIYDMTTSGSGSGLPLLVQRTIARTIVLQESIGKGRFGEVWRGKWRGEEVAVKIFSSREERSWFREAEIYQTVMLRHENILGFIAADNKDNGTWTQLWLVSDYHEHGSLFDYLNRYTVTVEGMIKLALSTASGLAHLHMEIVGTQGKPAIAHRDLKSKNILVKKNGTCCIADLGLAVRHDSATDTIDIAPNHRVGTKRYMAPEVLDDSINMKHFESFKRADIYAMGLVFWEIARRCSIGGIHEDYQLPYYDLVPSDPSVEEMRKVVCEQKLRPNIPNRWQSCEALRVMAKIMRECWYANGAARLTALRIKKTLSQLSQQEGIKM
Assay: Cellular inhibition of ALK5 (CellSensor SBE-bla HEK 293T beta-lactamase reporter)
Conditions: cellular inhibition of ALK5, SBE-bla HEK 293T cells, TGFb-1 stimulated 5 hours; average where measured in multiple experiments
measurement_label: IC50 (nM)

Lookup: Give me measured IC50, please, for this compound: CNC(=O)n1ncc2nccc(Nc3nc(-c4cc(Cl)ccc4F)ncc3C)c21 [Example 2]
Found: 79.4

a = Cc1ccc(F)c(-c2cc(Nc3ccnc4cnn(C[C@H](C)O)c34)c(C)cn2)n1 [Example 152]
b = Cc1ccc(F)c(-c2cc(Nc3ccnc4cn(CCF)nc34)c(C)cn2)n1 [Example 129]
c = Cc1ccc(F)c(-c2cc(Nc3ccnc4cnn(CC(O)C(F)(F)F)c34)ccn2)n1 (centres unmarked) [Example 113]
d = Cc1cc(Nc2ccnc3cnn(CC(N)=O)c23)cc(-c2cc(Cl)ccc2F)n1 [Example 60A]
e = Cc1ccc(F)c(-c2cc(Nc3ccnc4cnn(C5CC5)c34)ccn2)n1 [Example 133]
Lookup: Rank order required: IC50, descending. Labels, ranked as asked.
Found: c, d, a, e, b

I = CC(C)n1ncc2nccc(Nc3ccnc(-c4cc(Cl)ccc4F)c3)c21 [Example 20]
II = CCn1ncc2nccc(Nc3ccnc(-c4nc(C)ccc4F)c3)c21 [Example 127]
Lookup: For the pair I and II , which member has the lower IC50 number? Pick one and reply with its label.
Found: II

A = Cc1ccc(F)c(-c2cc(Nc3ccnc4cnn(CCO)c34)c(C)cn2)n1 [Example 10]
B = CCNC(=O)Cn1ncc2nccc(Nc3cc(-c4cc(F)ccc4F)ncc3C)c21 [Example 155]
Lookup: Recorded IC50 values differ for A and B ; which one is higher? Pick one and reply with its label.
Found: B
(B: 794 nM, A: 20 nM)

A = Cc1cnc(-c2cc(Cl)ccc2F)cc1Nc1ccnc2cn(CC(N)=O)nc12 [Example 50]
B = Cc1ccc(F)c(-c2cc(Nc3ccnc4cn([C@H]5CCOC5)nc34)c(C)cn2)n1 [Example 140]
Lookup: For the pair A and B , which member has the lower IC50 number? Pick one and reply with its label.
Found: A
(A: 12.6 nM, B: 50.1 nM)

I = Cc1ccc(F)c(-c2cc(Nc3c(F)cnc4cnn(C[C@H](C)O)c34)ccn2)n1 [Example 100B]
II = CCNC(=O)N1CCC(Cn2cc3nccc(Nc4ccnc(-c5cc(Cl)ccc5F)c4)c3n2)CC1 [Example 28]
III = CNC(=O)Cn1ncc2nccc(Nc3cc(-c4nc(C)ccc4F)ncc3C)c21 [Example 145]
IV = Fc1ccc(Cl)cc1-c1cc(Nc2ccnc3cnn(C4CCOCC4)c23)ccn1 [Example 21]
Lookup: Rank order required: IC50, descending. Labels, ranked as asked.
Found: II, IV, I, III

1 = Cc1cnc(-c2cc(F)ccc2F)cc1Nc1ccnc2cnn(CC(C)O)c12 (centres unmarked) [Example 144]
2 = Cc1ccc(F)c(-c2cc(Nc3ccnc4cnn([C@H]5CCOC5)c34)c(C)cn2)n1 [Example 141]
Lookup: For the pair 1 and 2 , which member has the lower IC50 number? Pick one and reply with its label.
Found: 1
(1: 20 nM, 2: 158 nM)

I = CCNC(=O)Cn1ncc2nccc(Nc3cc(-c4nc(C)ccc4F)ncc3C)c21 [Example 153]
II = Cc1ccc(F)c(-c2cc(Nc3ccnc4cnn(C5CCS(=O)(=O)C5)c34)c(C)cn2)n1 (centres unmarked) [Example 157]
III = CCNC(=O)n1ncc2nccc(Nc3ccnc(-c4cc(F)ccc4F)c3)c21 [Example 93]
Lookup: Order the entries by their reported IC50, beginning at the minimum. Labels, ranked as asked.
Found: III, I, II
(III: 25.1 nM, I: 79.4 nM, II: 398 nM)

1 = Cc1ccc(F)c(-c2cc(Nc3ccnc4cn(C5CC5)nc34)c(C)cn2)n1 [Example 122]
2 = Cc1cnc(-c2cc(F)ccc2F)nc1Nc1ccnc2cn[nH]c12 [Example 96]
3 = COCCn1cc2ncc(F)c(Nc3cc(-c4cc(Cl)ccc4F)ncc3C)c2n1 [Example 16]
4 = CCn1cc2ncc(F)c(Nc3cc(-c4nc(C)ccc4F)ncc3C)c2n1 [Example 138]
5 = NC(=O)Cn1cc2nccc(Nc3ccnc(-c4cc(F)ccc4F)c3)c2n1 [Example 87]
Lookup: Rank order required: IC50, descending. Labels, ranked as asked.
Found: 3, 5, 2, 4, 1
